biological target: recombinant human GST-SYK (Homo sapiens); construct: purchased Carna Biosciences 08-176; assay: Homogeneous Time-Resolved Fluorescence (HTRF) assay for the recombinant human Syk enzyme; type: biochemical; details: GST-hSYK 5 pM, ATP 25 μM, IC50 rated in classes, read-out: rhSYK Activity
pIC50: −log10 of the molar value.
observable: pIC50

Please review the entries below; each comes with its answer.
>>> endpoint_value("Cc1cc(Nc2nccc(C(F)(F)F)n2)cc(-c2cnc(NC3(C(N)=O)CC3)nc2)c1")
"> 7.00"
>>> endpoint_value("Cc1cc(Nc2nccc(C(F)(F)F)n2)cc(-c2cnc(N3CCN(CC(F)(F)F)CC3)nc2)c1")
"6.00 to 7.00"
>>> endpoint_value("Cc1cc(Nc2nccc(C(F)F)n2)cc(-c2cnc([C@H](C)[C@H]3CC[C@H](C(=O)O)[C@H](C)C3)nc2)c1 (single isomer, unassigned) [Example 7.1]")
"> 7.00"
>>> endpoint_value("CC(=O)N1CCN(c2ncc(-c3cc(C)cc(Nc4nccc(C(F)(F)F)n4)c3)cn2)CC1")
"> 7.00"
>>> endpoint_value("Cc1cc(Nc2nccc(C(F)(F)F)n2)cc(-c2ccc(N3CCC(O)CC3)nn2)c1")
"6.00 to 7.00"

// query // returns reported pIC50 for input Cc1cc(Nc2nccc(C(F)(F)F)n2)cc(-c2cccnn2)c1
// result 6.00 to 7.00

// query Then CCN1CCN(c2ncc(-c3cc(C)cc(Nc4nccc(C(F)(F)F)n4)c3)cn2)CC1 ?
// result > 7.00

// query Then Cc1cc(Nc2nccc(C(F)(F)F)n2)cc(-c2cnc(NCC(O)C(F)F)nc2)c1 (stereo not shown) ?
// result > 7.00

// query Then CCOC(=O)CCc1cc(-c2cc(C)cc(Nc3nccc(C(F)(F)F)n3)c2)ncn1 ?
// result 6.00 to 7.00

// query Then Cc1cc(Nc2nccc(C3CC3)n2)cc(-c2cnc(CCC(=O)O)cn2)c1 ?
// result > 7.00
